target: Cyclin-dependent kinase 2/cyclin E1 (Homo sapiens, UniProt P24941); experiment: Inhibition of recombinant CDK2/cyclin E (unknown origin) using histone H1 as substrate in presence of [gamma-33P]ATP
Property measured: pIC50
One number for each entry, as −log10 of the molar value.

Sample answers from the record:
CC(C)[C@H](CO)Nc1nc(NC(=N)N)c2ncn(C(C)C)c2n1
6.85
CC(C)n1cnc2c(NC(=N)N)nc(NCCCO)nc21
6.74

## Input Hello, please tell me recorded pIC50 for this one: CC(C)n1cnc2c(NC(=N)N)nc(N3CCC[C@H]3CO)nc21
## Output 6.80

----------
biological target: Cyclin-dependent kinase 2/cyclin E1 (Homo sapiens, UniProt P24941); experiment: Inhibition of recombinant CDK2/cyclin E (unknown origin) using histone H1 as substrate in presence of [gamma-33P]ATP
Property measured: pIC50
Numbers only, as −log10 of the molar value.

Known results for molecules:
CC(C)Cn1cnc2c(NC(=N)N)nc(N)nc21
4.18
CC[C@@H](CO)Nc1nc(NC(=N)N)c2ncn(C(C)C)c2n1
7.43
Cn1cnc2c(NC(=N)N)nc(N)nc21
5.17
CC[C@@H](N)COc1nc(NC(=N)N)c2ncn(C(C)C)c2n1
4.88
CC[C@H](CO)Nc1nc(NC(=N)N)c2ncn(C(C)C)c2n1
6.85

Hi! Can you tell me pIC50 for each of these molecules?
1. CCn1cnc2c(N)nc(N)nc21
2. CC(C)n1cnc2c(NC(=N)N)nc(NCCO)nc21
3. CC(C)n1cnc2c(NC(=N)N)nc(NC3CC3)nc21
4. CC(C)[C@H](N)COc1nc(NC(=N)N)c2ncn(C(C)C)c2n1
5. CC(C)n1cnc2c(NC(=N)N)nc(OC[C@@H]3CCCN3)nc21
6. CC(C)n1cnc2c(N)nc(N)nc21
7. CC(C)n1cnc2c(NC(=N)N)nc(OC[C@H]3CCCN3)nc21
8. CC(C)n1cnc2c(NC(=N)N)nc(N)nc21

## Output
5.10
6.09
6.30
5.74
4.60
4.65
4.63
5.89

----------
What log10 of IC50 was measured for each of the following?
target: Cyclin-dependent kinase 1/cyclin B1 (Homo sapiens, UniProt P06493); experiment: Inhibition of recombinant CDK1/cyclin B (unknown origin) using histone H1 as substrate in presence of [gamma-33P]ATP
Sequence (P06493 whole entry): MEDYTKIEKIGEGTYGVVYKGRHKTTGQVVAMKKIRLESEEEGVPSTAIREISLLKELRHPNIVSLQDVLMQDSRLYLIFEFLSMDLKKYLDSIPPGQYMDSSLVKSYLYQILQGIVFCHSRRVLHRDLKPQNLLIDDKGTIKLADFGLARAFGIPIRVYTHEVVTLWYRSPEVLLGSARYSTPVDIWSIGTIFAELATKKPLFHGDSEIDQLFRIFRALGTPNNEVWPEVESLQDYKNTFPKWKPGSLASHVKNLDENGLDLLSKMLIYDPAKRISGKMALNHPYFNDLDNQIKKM
Sequence (P14635 whole entry, further chain): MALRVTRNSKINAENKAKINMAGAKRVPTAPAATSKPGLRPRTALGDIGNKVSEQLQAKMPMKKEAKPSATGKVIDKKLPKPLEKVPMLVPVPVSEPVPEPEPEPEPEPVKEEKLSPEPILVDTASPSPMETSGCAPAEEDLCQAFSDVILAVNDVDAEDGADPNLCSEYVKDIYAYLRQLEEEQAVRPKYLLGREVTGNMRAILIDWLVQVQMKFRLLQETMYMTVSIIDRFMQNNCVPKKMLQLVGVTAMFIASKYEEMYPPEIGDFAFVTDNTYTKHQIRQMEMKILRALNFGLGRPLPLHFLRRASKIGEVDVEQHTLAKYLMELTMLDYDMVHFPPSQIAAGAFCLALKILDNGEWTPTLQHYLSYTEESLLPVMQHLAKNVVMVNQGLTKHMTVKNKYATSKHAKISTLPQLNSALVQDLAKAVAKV
The base-10 logarithm of IC50, taken with IC50 in µM, is what appears here.

Below: 5 compounds and their reported log10 of IC50.
CC(C)n1cnc2c(NC(=N)N)nc(NCCCCCCO)nc21
0.62
CC[C@H](CO)Nc1nc(NC(=N)N)c2ncn(C(C)C)c2n1
0.32
CCn1cnc2c(NC(=N)N)nc(N)nc21
1.10
CC[C@@H](N)COc1nc(NC(=N)N)c2ncn(C(C)C)c2n1
1.68
CC(C)n1cnc2c(N)nc(N)nc21
1.81

Working through the 5 compounds below one at a time, give log10 of IC50 for each.
1. CC(C)n1cnc2c(NC(=N)N)nc(NCCCO)nc21
2. CC[C@H](N)COc1nc(NC(=N)N)c2ncn(C(C)C)c2n1
3. CC(C)n1cnc2c(NC(=N)N)nc(NCCO)nc21
4. CC(C)n1cnc2c(NC(=N)N)nc(N3CCC[C@@H]3CO)nc21
5. CC(C)[C@H](N)COc1nc(NC(=N)N)c2ncn(C(C)C)c2n1

## Output
0.61
0.91
1.18
0.79
0.04

Give log10 of IC50 for each of the items listed below.
1. CC(C)[C@H](CO)Nc1nc(NC(=N)N)c2ncn(C(C)C)c2n1
2. CC[C@@H](CO)Nc1nc(NC(=N)N)c2ncn(C(C)C)c2n1
3. CC(C)n1cnc2c(NC(=N)N)nc(N3CCC[C@H]3CO)nc21

## Output
1. 0.30
2. -0.05
3. 0.18

List the reported log10 of IC50 of each compound below.
1. Cn1cnc2c(NC(=N)N)nc(N)nc21
2. CC(C)n1cnc2c(NC(=N)N)nc(NC3CC3)nc21
3. CCCn1cnc2c(NC(=N)N)nc(N)nc21
4. CC(C)n1cnc2c(NC(=N)N)nc(N)nc21
5. CC(C)[C@@H](N)COc1nc(NC(=N)N)c2ncn(C(C)C)c2n1

## Output
1.58
0.81
1.75
1.17
1.19

----------
molecular target: Aurora kinase A/B (Homo sapiens) (UniProt Q96GD4+O14965); experiment: Activity at Aurora kinase A/B in human MCF7 cells assessed as histone H3 phosphorylation at Ser10 at 100 uM after 24 hrs by flow cytometry relative to untreated control; type: cell-based
Sequence (O14965 whole entry, looked up): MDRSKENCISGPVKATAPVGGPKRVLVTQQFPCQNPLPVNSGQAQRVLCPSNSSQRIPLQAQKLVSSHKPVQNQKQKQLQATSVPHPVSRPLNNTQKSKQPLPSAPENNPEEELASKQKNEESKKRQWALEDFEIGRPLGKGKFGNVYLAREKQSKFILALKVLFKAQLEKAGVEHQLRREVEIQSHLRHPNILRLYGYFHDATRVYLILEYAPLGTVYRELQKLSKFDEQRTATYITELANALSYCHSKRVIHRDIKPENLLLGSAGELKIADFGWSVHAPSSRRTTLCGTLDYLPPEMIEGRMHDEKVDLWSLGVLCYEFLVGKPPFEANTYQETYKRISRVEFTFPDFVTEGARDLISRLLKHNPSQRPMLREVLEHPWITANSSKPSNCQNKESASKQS
Sequence (Q96GD4 whole entry, looked up): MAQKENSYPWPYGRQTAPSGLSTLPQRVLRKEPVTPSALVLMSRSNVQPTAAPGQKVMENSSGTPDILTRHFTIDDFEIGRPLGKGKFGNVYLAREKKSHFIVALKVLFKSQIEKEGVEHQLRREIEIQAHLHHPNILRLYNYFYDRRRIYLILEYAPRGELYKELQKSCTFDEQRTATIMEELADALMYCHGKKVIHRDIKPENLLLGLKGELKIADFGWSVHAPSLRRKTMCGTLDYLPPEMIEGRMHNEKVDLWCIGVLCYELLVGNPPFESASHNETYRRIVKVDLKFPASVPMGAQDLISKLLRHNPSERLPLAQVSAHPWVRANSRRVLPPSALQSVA
Property measured: Ratio
Answers are plain numbers.

Example molecules with recorded Ratio:
CC(C)n1cnc2c(NC(=N)N)nc(OC[C@@H]3CCCN3)nc21
0.8
CC[C@@H](CO)Nc1nc(NC(=N)N)c2ncn(C(C)C)c2n1
0.09
CC(C)n1cnc2c(NC(=N)N)nc(NC3CC3)nc21
0.17

Give one value of Ratio per listed molecule.
1. CC[C@H](CO)Nc1nc(NC(=N)N)c2ncn(C(C)C)c2n1
2. CC(C)[C@H](N)COc1nc(NC(=N)N)c2ncn(C(C)C)c2n1
3. CC(C)[C@@H](CO)Nc1nc(NC(=N)N)c2ncn(C(C)C)c2n1
4. CCCn1cnc2c(NC(=N)N)nc(N)nc21
5. CC(C)n1cnc2c(NC(=N)N)nc(N3CCC[C@@H]3CO)nc21
6. CC(C)[C@@H](N)COc1nc(NC(=N)N)c2ncn(C(C)C)c2n1

## Output
1. 0.08
2. 0.09
3. 0.09
4. 6.71
5. 0.1
6. 0.39

Hi! Can you tell me Ratio for each of these molecules?
1. Cn1cnc2c(NC(=N)N)nc(N)nc21
2. CC(C)n1cnc2c(NC(=N)N)nc(N3CCC[C@H]3CO)nc21
3. CC(C)n1cnc2c(NC(=N)N)nc(N)nc21
4. CC[C@@H](N)COc1nc(NC(=N)N)c2ncn(C(C)C)c2n1

## Output
1. 0.81
2. 0.11
3. 0.18
4. 1.08

Each molecule below has a recorded value; state its Ratio.
1. CCn1cnc2c(NC(=N)N)nc(N)nc21
2. CC(C)[C@H](CO)Nc1nc(NC(=N)N)c2ncn(C(C)C)c2n1
3. CC(C)n1cnc2c(NC(=N)N)nc(NCCCCCCO)nc21
4. CC[C@H](N)COc1nc(NC(=N)N)c2ncn(C(C)C)c2n1
5. CC(C)n1cnc2c(NC(=N)N)nc(NCCCO)nc21

## Output
1: 0.1; 2: 0.13; 3: 0.33; 4: 0.07; 5: 0.18

Fill in Ratio for each of the 2 molecules listed.
1. CC(C)Cn1cnc2c(NC(=N)N)nc(N)nc21
2. CC(C)n1cnc2c(NC(=N)N)nc(NCCO)nc21

## Output
[7, 0.15]

----------
target: Cyclin-dependent kinase 2/cyclin E1 (Homo sapiens); assay: Inhibition of recombinant CDK2/cyclin E (unknown origin) using histone H1 as substrate in presence of [gamma-33P]ATP
Please go through the items and note down their IC50.
One number for each entry, in µM.

Consider the worked cases shown below.
CCCn1cnc2c(NC(=N)N)nc(N)nc21
10.7
CCn1cnc2c(NC(=N)N)nc(N)nc21
1.7
[N-]=[N+]=NCCn1cnc2c(NC(=N)N)nc(N)nc21
74.9

List IC50 for every entry below, keeping the order given.
1. CC(C)n1cnc2c(NC(=N)N)nc(NCCCCCCO)nc21
2. CC[C@H](N)COc1nc(NC(=N)N)c2ncn(C(C)C)c2n1
3. CC(C)n1cnc2c(NC(=N)N)nc(N3CCC[C@@H]3CO)nc21
4. CC(C)[C@@H](CO)Nc1nc(NC(=N)N)c2ncn(C(C)C)c2n1
5. CC(C)[C@@H](N)COc1nc(NC(=N)N)c2ncn(C(C)C)c2n1

## Output
1. 1.6
2. 6.2
3. 0.67
4. 0.071
5. 8

----------
Kindly supply the reported IC50 values for the records listed here.
target: Cyclin-dependent kinase 1/cyclin B1 (Homo sapiens, UniProt P06493); experiment: Inhibition of recombinant CDK1/cyclin B (unknown origin) using histone H1 as substrate in presence of [gamma-33P]ATP

Recorded results for 3 molecules are shown here.
Cn1cnc2c(NC(=N)N)ncnc21
> 100 µM
N=C(N)Nc1nc(N)nc2c1ncn2CCN
> 50 µM
[N-]=[N+]=NCCn1cnc2c(NC(=N)N)nc(N)nc21
> 100 µM

Batch request: IC50 per item, same order as input.
1. N=C(N)Nc1nc(N)nc2c1ncn2CCO
2. CN(C)c1nc(N)nc2c1ncn2CCN=[N+]=[N-]
3. CC(C)Cn1cnc2c(NC(=N)N)nc(N)nc21

## Output
1. > 100 µM
2. > 100 µM
3. > 100 µM

# per-item lookup of IC50; items listed below
1. CC(C)n1cnc2c(NC(=N)N)nc(OC[C@@H]3CCCN3)nc21
2. N=C(N)Nc1nc(N)nc2c1ncn2CC(F)(F)F
3. CCn1cnc2c(N)nc(N)nc21
4. CC(C)[C@@H](CO)Nc1nc(NC(=N)N)c2ncn(C(C)C)c2n1
5. CC(C)n1cnc2c(NC(=N)N)nc(OC[C@H]3CCCN3)nc21

## Output
1: > 100 µM; 2: > 100 µM; 3: 37.5 µM; 4: 1.1 µM; 5: 81.5 µM
